B1: FAM98B (parent)
chain: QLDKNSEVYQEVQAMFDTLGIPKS

# Variants of: B1
# assay: protein stability index of a GFP-peptide fusion (GPS, HEK-293T) (PSI 1-6); higher = more stable;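 also: lentivirally expressed fusions sorted by FACS into six bins by GFP to DsRed ratio, PSI derived from sequencing read proportions per bin multiplied by bin number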
# condition: c terminus: a fixed tail appended
reported_endpoint: protein stability index

# example entries with known answers
QLDKNSEVYQEVQAMFDTLGIPKF [S24F] :: 3
QLDKNSIVYQEVQAMFDTLGIPKS [E7I] :: 1.99
QLDKNSRVYQEVQAMFDTLGIPKS [E7R] :: 2.87
QLDKNSEVYQEVNAMFDTLGIPKS [Q13N] :: 2.56
QLDKNSEVYQEQQAMFDTLGIPKS [V12Q] :: 3.56
QLDKNSEVYQEVQAMFDTLNIPKS [G20N] :: 3.97
QLDKNSEVYQEVQAMFDTLGIPKG [S24G] :: 3.61
QLDKNSEVYQEVQAMFDTLPIPKS [G20P] :: 3.01
QLDKNSEVYQPVQAMFDTLGIPKS [E11P] :: 2.88
QLDKNSEVYQEVQAMFITLGIPKS [D17I] :: 1.83

Can you give me protein stability index for all of these, one by one?
1. QLDKNSEVGQEVQAMFDTLGIPKS [Y9G]
2. QLDKNSEVYQEVQAMFDTGGIPKS [L19G]
3. QLDKNSEVYQEVQAMFDTLGIPFS [K23F]
4. QLNKNSEVYQEVQAMFDTLGIPKS [D3N]
5. QLDKNSEVYQEVQAMFDTLGIPKQ [S24Q]
6. QLDKNSEVYQEVQAMFDYLGIPKS [T18Y]
7. QLDKNSEVYQEVGAMFDTLGIPKS [Q13G]
8. QLDKESEVYQEVQAMFDTLGIPKS [N5E]

Reply:
1. 3.5
2. 3.49
3. 2.59
4. 3.47
5. 3.25
6. 2.67
7. 3.09
8. 3.86

For every item below, please supply its protein stability index.
1. QLDKNSEVYQEVQAMFDFLGIPKS [T18F]
2. QLDKNSEVYQEVQAMFDRLGIPKS [T18R]

Reply:
[3.52, 3.33]

For each of the variants below, note its protein stability index.
1. QLDKNSEVYQMVQAMFDTLGIPKS [E11M]
2. QLDKNSEVYQECQAMFDTLGIPKS [V12C]
3. QLDKNSEVYAEVQAMFDTLGIPKS [Q10A]
4. QLDKNSEVYQEVQAMFDTRGIPKS [L19R]

Reply:
2.36
3.36
3.01
3.7

For each entry beneath this line, provide reported protein stability index.
1. QLHKNSEVYQEVQAMFDTLGIPKS [D3H]
2. QLDKNSECYQEVQAMFDTLGIPKS [V8C]

Reply:
1: 3.43; 2: 3.02
